# System: MOLT-4
# protocol summary: NCI tumour cell line growth inhibition, 48 h
The source made the active and inactive calls. Cut-off read from the data, not from the text of the source: active = GI50 up to about 1.1 µM and inactive = higher.
One label from this list, please: active, inactive

Below, 5 compounds whose answers are already recorded.
{"compound": "COc1cc2c(c(OC)c1OC)-c1ccc(SC)c(=O)cc1C(CC(=O)Oc1ccccc1F)C2 (stereo not drawn)", "discrete label": "active"}
{"compound": "CCN(CC)CCCNc1ncc(C)c2c1c1ccc3c(O)cccc3c1n2C", "discrete label": "active"}
{"compound": "C=CC1=C(C)c2cc3[nH]c(c4c5nc(cc6[nH]c(cc1n2)c(C)c6CC)C=C5C(=O)C4C(=O)OC)C(CCC(=O)OC/C=C(\\C)CCCC(C)CCCC(C)CCCC(C)C)C3C.C=CC1=C(C)c2cc3[nH]c(c4c5nc(cc6[nH]c(cc1n2)c(C=O)c6CC)C=C5C(=O)C4C(=O)OC)C(CCC(=O)OC/C=C(\\C)CCCC(C)CCCC(C)CCCC(C)C)C3C (stereo not drawn)", "discrete label": "inactive"}
{"compound": "CC(C)=CC(=O)N1CCN(C(=O)C=C(C)C)CC1", "discrete label": "inactive"}
{"compound": "CC(=O)N(C)c1ccc(Nc2ccnc3ccc4nn(C)nc4c23)cc1", "discrete label": "inactive"}

Challenge: In this assay, the call recorded for COc1ccc(N2C(=O)C(Cl)C2c2cc3cc(Br)ccc3nc2Cl)cc1 (stereo not drawn) was what?
Response given: inactive

Challenge: In this assay, the call recorded for `CCOC(=O)/C(SC#N)=C(/N)N1CCCC1` was what?
Response given: inactive

Challenge: In this assay, the call recorded for `O=C(CCc1cccc(O)c1)NCCCNC(=O)CCc1cccc(O)c1` was what?
Response given: inactive
